Source: BigSolDB 2.1

- experimentalConditions: in n-hexane, 293.15 K
assayMetric: solubility (mole fraction)

Guide cases for solubility (mole fraction), answers given:
>>> recordedmeasurement("CC(C)c1ccc(N=C2SCC3CCCN2C3)cc1 (stereo not drawn)")
0.00135
>>> recordedmeasurement("FC(F)(F)c1ccc(N=C2SCC3CCCN2C3)cc1 (stereo not drawn)")
0.000248
>>> recordedmeasurement("N#Cc1ccc(N=C2SCC3CCCN2C3)cc1 (stereo not drawn)")
0.000223

(I) CCc1ccc(N=C2SCC3CCCN2C3)cc1 (stereo not drawn)
(II) Fc1ccc(N=C2SCC3CCCN2C3)cc1 (stereo not drawn)
(III) Cc1ccc(N=C2SCC3CCCN2C3)cc1Cl (stereo not drawn)
(IV) CC(=O)c1ccc(N=C2SCC3CCCN2C3)cc1 (stereo not drawn)
(V) Cc1ccc(N=C2SCC3CCCN2C3)cc1 (stereo not drawn)
-- ask Which order do these items take when sorted by rising solubility (mole fraction)? List them. // ordering of labels required in reply
-- reply III, IV, I, II, V
(III: 7.1e-05, IV: 0.000144, I: 0.000225, II: 0.0015, V: 0.0033)

====

- experimentalConditions: in n-octanol, 293.15 K
assayMetric: solubility (mole fraction)

Consider the worked cases shown below.
>>> recordedmeasurement("CC(C)c1ccc(N=C2SCC3CCCN2C3)cc1 (stereo not drawn)")
0.143
>>> recordedmeasurement("Fc1ccc(N=C2SCC3CCCN2C3)cc1 (stereo not drawn)")
0.0245
>>> recordedmeasurement("CCc1ccc(N=C2SCC3CCCN2C3)cc1 (stereo not drawn)")
0.0124
>>> recordedmeasurement("Cc1ccc(N=C2SCC3CCCN2C3)cc1Cl (stereo not drawn)")
0.00305
>>> recordedmeasurement("CC(=O)c1ccc(N=C2SCC3CCCN2C3)cc1 (stereo not drawn)")
0.0075

(1) FC(F)(F)c1ccc(N=C2SCC3CCCN2C3)cc1 (stereo not drawn)
(2) Cc1ccc(N=C2SCC3CCCN2C3)cc1 (stereo not drawn)
-- ask Pick one, 1 or 2 : lowest reported solubility (mole fraction). Your answer should be the label of the entry you select.
-- reply 1
(1: 0.0118, 2: 0.145)

====

- experimentalConditions: in n-octanol, 310.15 K
assayMetric: solubility (mole fraction)

>>> recordedmeasurement("CC(=O)c1ccc(N=C2SCC3CCCN2C3)cc1 (stereo not drawn)")
0.0156

(I) FC(F)(F)c1ccc(N=C2SCC3CCCN2C3)cc1 (stereo not drawn)
(II) Cc1ccc(N=C2SCC3CCCN2C3)cc1 (stereo not drawn)
(III) Cc1ccc(N=C2SCC3CCCN2C3)cc1Cl (stereo not drawn)
(IV) Fc1ccc(N=C2SCC3CCCN2C3)cc1 (stereo not drawn)
-- ask Please rank these compounds by solubility (mole fraction) in descending order. In plain terms: list the labels in the order you were asked to.
-- reply II, IV, I, III
(II: 0.193, IV: 0.0469, I: 0.0171, III: 0.00605)

(1) CCc1ccc(N=C2SCC3CCCN2C3)cc1 (stereo not drawn)
(2) CC(C)c1ccc(N=C2SCC3CCCN2C3)cc1 (stereo not drawn)
-- ask Pick one, 1 or 2 : lowest reported solubility (mole fraction). Which one? Tell me its label.
-- reply 1

====

- experimentalConditions: in n-hexane, 315.15 K
assayMetric: solubility (mole fraction)

>>> recordedmeasurement("Cc1ccc(N=C2SCC3CCCN2C3)cc1 (stereo not drawn)")
0.0135
>>> recordedmeasurement("CC(C)c1ccc(N=C2SCC3CCCN2C3)cc1 (stereo not drawn)")
0.00288
>>> recordedmeasurement("N#Cc1ccc(N=C2SCC3CCCN2C3)cc1 (stereo not drawn)")
0.000523
>>> recordedmeasurement("FC(F)(F)c1ccc(N=C2SCC3CCCN2C3)cc1 (stereo not drawn)")
0.00046
>>> recordedmeasurement("CCc1ccc(N=C2SCC3CCCN2C3)cc1 (stereo not drawn)")
0.000673

(I) Fc1ccc(N=C2SCC3CCCN2C3)cc1 (stereo not drawn)
(II) CC(=O)c1ccc(N=C2SCC3CCCN2C3)cc1 (stereo not drawn)
(III) Cc1ccc(N=C2SCC3CCCN2C3)cc1Cl (stereo not drawn)
-- ask Rank the items in ascending order with respect to solubility (mole fraction). Note for the reader: the ranking is given by listing the labels in the order requested.
-- reply III, II, I

====

- experimentalConditions: in n-octanol, 298.15 K
assayMetric: solubility (mole fraction)

Below: 4 compounds and their reported solubility (mole fraction).
>>> recordedmeasurement("CCc1ccc(N=C2SCC3CCCN2C3)cc1 (stereo not drawn)")
0.0139
>>> recordedmeasurement("N#Cc1ccc(N=C2SCC3CCCN2C3)cc1 (stereo not drawn)")
0.0107
>>> recordedmeasurement("CC(=O)c1ccc(N=C2SCC3CCCN2C3)cc1 (stereo not drawn)")
0.0093
>>> recordedmeasurement("Cc1ccc(N=C2SCC3CCCN2C3)cc1 (stereo not drawn)")
0.157

(I) CC(C)c1ccc(N=C2SCC3CCCN2C3)cc1 (stereo not drawn)
(II) Fc1ccc(N=C2SCC3CCCN2C3)cc1 (stereo not drawn)
(III) FC(F)(F)c1ccc(N=C2SCC3CCCN2C3)cc1 (stereo not drawn)
(IV) Cc1ccc(N=C2SCC3CCCN2C3)cc1Cl (stereo not drawn)
-- ask Please put the entries in order of rising solubility (mole fraction). I'd appreciate it if you listed the labels in the requested order.
-- reply IV, III, II, I
(IV: 0.00377, III: 0.0132, II: 0.0296, I: 0.154)

====

- experimentalConditions: in n-hexane, 303.15 K
assayMetric: solubility (mole fraction)

>>> recordedmeasurement("Cc1ccc(N=C2SCC3CCCN2C3)cc1 (stereo not drawn)")
0.00654

(a) Fc1ccc(N=C2SCC3CCCN2C3)cc1 (stereo not drawn)
(b) FC(F)(F)c1ccc(N=C2SCC3CCCN2C3)cc1 (stereo not drawn)
(c) CC(=O)c1ccc(N=C2SCC3CCCN2C3)cc1 (stereo not drawn)
-- ask // ranking: key=solubility (mole fraction), reverse=True List each label, following the requested order.
-- reply a, b, c
(a: 0.00224, b: 0.000339, c: 0.000215)

(I) CCc1ccc(N=C2SCC3CCCN2C3)cc1 (stereo not drawn)
(II) CC(C)c1ccc(N=C2SCC3CCCN2C3)cc1 (stereo not drawn)
(III) Cc1ccc(N=C2SCC3CCCN2C3)cc1Cl (stereo not drawn)
-- ask Rank items: key solubility (mole fraction), increasing. Please list the labels in the order you were asked to rank them.
-- reply III, I, II
(III: 0.000106, I: 0.000382, II: 0.00195)

====

- experimentalConditions: in n-hexane, 298.15 K
assayMetric: solubility (mole fraction)

>>> recordedmeasurement("Fc1ccc(N=C2SCC3CCCN2C3)cc1 (stereo not drawn)")
0.00187
>>> recordedmeasurement("CC(=O)c1ccc(N=C2SCC3CCCN2C3)cc1 (stereo not drawn)")
0.000176

(A) Cc1ccc(N=C2SCC3CCCN2C3)cc1 (stereo not drawn)
(B) N#Cc1ccc(N=C2SCC3CCCN2C3)cc1 (stereo not drawn)
-- ask Short answer wanted: higher solubility (mole fraction), A or B ? // respond with label for picked entry
-- reply A
(A: 0.00465, B: 0.000271)

(1) FC(F)(F)c1ccc(N=C2SCC3CCCN2C3)cc1 (stereo not drawn)
(2) Cc1ccc(N=C2SCC3CCCN2C3)cc1Cl (stereo not drawn)
-- ask Parameter check: reported solubility (mole fraction) is higher for which label, 1 or 2 ? // respond with label for picked entry
-- reply 1
(1: 0.000286, 2: 8.71e-05)

(a) CC(C)c1ccc(N=C2SCC3CCCN2C3)cc1 (stereo not drawn)
(b) CCc1ccc(N=C2SCC3CCCN2C3)cc1 (stereo not drawn)
-- ask Kindly compare a with b and tell me which has the lower solubility (mole fraction) figure. In your reply, give the label of the chosen option.
-- reply b
(b: 0.000289, a: 0.00158)

====

- experimentalConditions: in n-octanol, 303.15 K
assayMetric: solubility (mole fraction)

(A) Cc1ccc(N=C2SCC3CCCN2C3)cc1Cl (stereo not drawn)
(B) N#Cc1ccc(N=C2SCC3CCCN2C3)cc1 (stereo not drawn)
-- ask Which of the two gives a bigger number for solubility (mole fraction): A or B ? // respond with label for picked entry
-- reply B

(a) CC(=O)c1ccc(N=C2SCC3CCCN2C3)cc1 (stereo not drawn)
(b) Cc1ccc(N=C2SCC3CCCN2C3)cc1 (stereo not drawn)
-- ask Pick the one with the larger solubility (mole fraction): a vs b The response must carry the label of the picked entry.
-- reply b

(A) Fc1ccc(N=C2SCC3CCCN2C3)cc1 (stereo not drawn)
(B) CC(C)c1ccc(N=C2SCC3CCCN2C3)cc1 (stereo not drawn)
-- ask Sorting by solubility (mole fraction) in descending order, would A or B appear first? Please respond with the label that marks your chosen entry.
-- reply B
(B: 0.164, A: 0.0354)

====

- experimentalConditions: in n-hexane, 310.15 K
assayMetric: solubility (mole fraction)

The examples below pair each entry with its known result.
>>> recordedmeasurement("Cc1ccc(N=C2SCC3CCCN2C3)cc1 (stereo not drawn)")
0.0104
>>> recordedmeasurement("Fc1ccc(N=C2SCC3CCCN2C3)cc1 (stereo not drawn)")
0.00294
>>> recordedmeasurement("FC(F)(F)c1ccc(N=C2SCC3CCCN2C3)cc1 (stereo not drawn)")
0.000402
>>> recordedmeasurement("N#Cc1ccc(N=C2SCC3CCCN2C3)cc1 (stereo not drawn)")
0.000422

(a) CC(C)c1ccc(N=C2SCC3CCCN2C3)cc1 (stereo not drawn)
(b) CC(=O)c1ccc(N=C2SCC3CCCN2C3)cc1 (stereo not drawn)
(c) CCc1ccc(N=C2SCC3CCCN2C3)cc1 (stereo not drawn)
(d) Cc1ccc(N=C2SCC3CCCN2C3)cc1Cl (stereo not drawn)
-- ask List items by solubility (mole fraction) in falling order. Would you mind listing the labels in the order asked for?
-- reply a, c, b, d
(a: 0.00246, c: 0.000537, b: 0.00028, d: 0.000134)
